Recorded Percent Effect, one value per entry.
# testedTarget: Sialic acid-binding Ig-like lectin 9 (Homo sapiens)
# protocolText: Hs-Siglec9 ALPHAscreen SOP 20170721
# Set-up: scale not given: direction of the effect not stated beside the values
# runConditions: 10 µM
The response must be a number in % with no trailing unit.

Answered cases to consult:
Cc1ccc(-c2ncc(C(=O)NCCNc3ncccn3)s2)c(C)c1; 1.25
N#Cc1ccc(C(=O)N2CCn3c(Cn4cccn4)cnc3C2)cc1; 1.75
CC(O)CC(C)(C)CNC(=O)NCc1cccc(-n2cncn2)c1 (stereo unspecified); 7.51
CN(c1ccncn1)C1CC2(CCN(C(=O)c3cccs3)C2)C1 (stereo unspecified); 8.09
Cc1noc(C)c1CN1CC2(CCN(C(=O)c3c[nH]cn3)C2)CC1=O (stereo unspecified); 13.2
O=C(CCCc1ncc(-c2ccccc2)o1)N1CCN(CCO)CC1; -6.16
COc1ccccc1C1CNC(=O)c2nc(-c3ncc[nH]3)[nH]c2C1 (stereo unspecified); 12.1
O=C(NCCc1cccs1)[C@H]1CO[C@H]2CCNC[C@H]2C1; -4.42

# query: Percent Effect of entry CN(CCC(F)(F)F)C(=O)C1CCCN1C(=O)OC(C)(C)C (stereo unspecified) -4.88

# query: Percent Effect of entry CCOc1ncccc1CNC(=O)N1CCCC1c1ccncc1 (stereo unspecified) 2.11

# query: Percent Effect of entry CCN(CCn1cccn1)Cc1nc(-c2ccccc2F)oc1C -5.94

# query: Percent Effect of entry COc1ccccc1S(=O)(=O)N1CCC(Oc2cccnn2)CC1 -3.66

# query: Percent Effect of entry Cc1ccc(CNC(=O)N2CCCCC2CCNS(C)(=O)=O)cc1 (stereo unspecified) -1.08

# query: Percent Effect of entry Cc1nccn1CC1CCCN1S(=O)(=O)Cc1ccccc1 (stereo unspecified) 4.66

# query: Percent Effect of entry COCCN1C[C@@H]2CCCO[C@@H]2[C@H](NC(=O)c2cnccn2)C1 1.69

# query: Percent Effect of entry C[C@@H]1CN(C(=O)c2ccc(C#N)nc2)C[C@@]1(O)C1CC1 30.4

# query: Percent Effect of entry Cc1cccc2c1cnn2CCC(=O)NCC(=O)N(C)C 7.1

* * *

# Organism: Homo sapiens
# protocolText: To identify inhibition of the IFN signalling (Jak-Stat) pathway via expression of an eGFP reporter gene under the control of an IFN-stimulated response element (ISRE) containing MxA promoter.
# Format: functional
# Parameters: scale not given: direction of the effect not stated beside the values
# runConditions: 30 µM
measuredQuantity: Percent Effect (%)
The response must be a number in % with no trailing unit.

CCC(C)[C@H](NC(=O)c1cc(Br)ccc1-n1cnnn1)C(=O)OC (stereo partly specified); -0.401

# query: Percent Effect of entry CC(C)c1noc(CCC(=O)NC(C)c2nnc3n2CCCCC3)n1 (stereo unspecified) -7.58

# query: Percent Effect of entry O=C(c1ccc[nH]1)N1C[C@H]2CN(Cc3cccc(F)c3)C(=O)[C@H]2C1 13

# query: Percent Effect of entry CCC(NC(=O)C1CCN(S(C)(=O)=O)CC1)c1ccc(OC)c(OC)c1 (stereo unspecified) -4.52

# query: Percent Effect of entry CC(C)Cc1noc(CN2CCN(CCOc3ccc(Cl)cc3)CC2)n1 32.7

# query: Percent Effect of entry c1ccc2c(N3CCCC3Cn3cccn3)ncnc2c1 (stereo unspecified) 50.9

* * *

# testedTarget: Arginase-2, mitochondrial (Homo sapiens) (UniProt P78540)
# Sequence (P78540 whole entry): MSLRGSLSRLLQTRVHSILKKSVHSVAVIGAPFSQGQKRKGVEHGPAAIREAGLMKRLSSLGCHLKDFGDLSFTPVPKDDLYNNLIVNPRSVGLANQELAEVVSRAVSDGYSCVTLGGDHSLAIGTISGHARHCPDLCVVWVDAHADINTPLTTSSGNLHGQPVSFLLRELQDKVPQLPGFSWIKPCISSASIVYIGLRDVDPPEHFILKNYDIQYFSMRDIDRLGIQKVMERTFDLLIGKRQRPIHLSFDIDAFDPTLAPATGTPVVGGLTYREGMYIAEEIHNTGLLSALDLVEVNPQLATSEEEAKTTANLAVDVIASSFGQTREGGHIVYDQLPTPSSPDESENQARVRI
# protocolText: in vitro enzyme assay to detect the production of urea directly proportional to the activity of Arginase II; further: in the data most compounds retested in dose-response had high values
# Format: functional
# Set-up: scale not given: direction of the effect not stated beside the values
# runConditions: 33.3 µM
measuredQuantity: Percent Effect
Write the numeric value and follow it with the unit.

Answered cases to consult:
Cc1cc(C)c2cc(CNCC3CCCO3)c3nn(C)c(=O)n3c2c1 (centres undefined); -1.62%
CC1c2ncc(COc3cccnc3)n2CCN1C(=O)Cc1ccco1 (centres undefined); -3.7%
Cc1nnn2c1COCC(CNC(=O)c1ccc3[nH]ccc3c1)C2 (centres undefined); -46.9%
CNc1cncc(C2CCCN2Cc2ccccc2OCC(=O)O)n1 (centres undefined); -2.55%
Cc1nc(N2CCN(C(=O)c3ccc(O)cc3)CC2)c2cnn(C)c2n1; 1.6%

# query: Percent Effect of entry O=C(NCC(=O)N1CCCCC1)c1ccc(Cl)cc1I 0%

# query: Percent Effect of entry COCCCNC(=O)CN(C)C(=O)c1cc(C)ccc1N(C)C(C)C -3.88%

# query: Percent Effect of entry CC(C)(C)C(=O)N1CCC2(COCc3cnc(N4CCOCC4)nc32)C1 (centres undefined) -7.57%

# query: Percent Effect of entry CC[C@@H](CO)NC(=O)c1coc(COc2ccc(OC)cc2)n1 -0.744%

# query: Percent Effect of entry CN(C)CC1CSCCCN1C(=O)c1ccc(=O)[nH]c1 (centres undefined) 0.645%

# query: Percent Effect of entry CN(C)CCO[C@H]1CN(Cc2cccc(C#N)c2)[C@@H]2COC[C@H]12 -44.6%

# query: Percent Effect of entry Cc1nn(C)c2cnn(C(C)C(=O)NCc3cccnc3)c12 (centres undefined) -1.58%

# query: Percent Effect of entry c1ccc(CN2CC[C@@H]3O[C@@H](COCC4CCOCC4)CC[C@@H]32)nc1 2.1%

* * *

# testedTarget: Ubiquitin-activating enzyme e1, putative (Leishmania donovani (strain BPK282A1))
# protocolText: Leishmania donovani Ubiquitin Activating Enzyme (LdE1)
# Format: functional
# Design: scale not given: direction of the effect not stated beside the values
# runConditions: 30 µM
Entries with a potency or affinity are not part of this list.
measuredQuantity: Percent Effect (%)
The response must be a number in % with no trailing unit.

Answered cases to consult:
COc1ccccc1C1(C(=O)NCCN2CCOCC2)CCOCC1; 10.8
CC1CN(CC(=O)Nc2nncs2)CCN1Cc1nccn1C (stereo not drawn); 8.11
Cc1ccc(C(CNCc2ccncc2)N2CCOCC2)s1 (stereo not drawn); -2.7
CC(=O)N1CCC(C(=O)N(C)[C@@H]2CCC[C@@H](N3CCCC3)[C@@H]2O)CC1; 20.3
NC(=O)CN1CC2(CCC1=O)CCN(Cc1cc(F)ccc1Cl)CC2; 16

# query: Percent Effect of entry Cc1cc(C)n(CC2CCCN2C(=O)c2cc[nH]n2)n1 (stereo not drawn) 16.5

# query: Percent Effect of entry CS(=O)(=O)N1CCC2(CN(C(=O)c3cccnc3)C2)C1 5.48

# query: Percent Effect of entry CCn1cnnc1C1CCN(C(=O)c2ccc(Cl)s2)CC1 17.7

# query: Percent Effect of entry CNC(=O)c1nc2c(s1)CCN(C(=O)Cc1ccc(OC)cc1)CC2 5.41

# query: Percent Effect of entry CC1CCCN(CCNC(=O)c2ccn(-c3ccccc3)n2)C1 (stereo not drawn) 18.2

# query: Percent Effect of entry Cc1cc(C2CCCN2C(=O)NCc2cccc(F)c2)on1 (stereo not drawn) 8

# query: Percent Effect of entry NC(=O)C1CCN(Cn2nc(-c3ccc(F)cc3)oc2=O)CC1 2.6

# query: Percent Effect of entry Clc1snnc1CN1CCCCC1Cn1cncn1 (stereo not drawn) 17.7

* * *

Recorded Percent Effect, one value per entry.
# testedTarget: Ubiquitin-activating enzyme e1, putative (Leishmania donovani (strain BPK282A1)) (UniProt E9BSI1)
# Sequence (whole entry): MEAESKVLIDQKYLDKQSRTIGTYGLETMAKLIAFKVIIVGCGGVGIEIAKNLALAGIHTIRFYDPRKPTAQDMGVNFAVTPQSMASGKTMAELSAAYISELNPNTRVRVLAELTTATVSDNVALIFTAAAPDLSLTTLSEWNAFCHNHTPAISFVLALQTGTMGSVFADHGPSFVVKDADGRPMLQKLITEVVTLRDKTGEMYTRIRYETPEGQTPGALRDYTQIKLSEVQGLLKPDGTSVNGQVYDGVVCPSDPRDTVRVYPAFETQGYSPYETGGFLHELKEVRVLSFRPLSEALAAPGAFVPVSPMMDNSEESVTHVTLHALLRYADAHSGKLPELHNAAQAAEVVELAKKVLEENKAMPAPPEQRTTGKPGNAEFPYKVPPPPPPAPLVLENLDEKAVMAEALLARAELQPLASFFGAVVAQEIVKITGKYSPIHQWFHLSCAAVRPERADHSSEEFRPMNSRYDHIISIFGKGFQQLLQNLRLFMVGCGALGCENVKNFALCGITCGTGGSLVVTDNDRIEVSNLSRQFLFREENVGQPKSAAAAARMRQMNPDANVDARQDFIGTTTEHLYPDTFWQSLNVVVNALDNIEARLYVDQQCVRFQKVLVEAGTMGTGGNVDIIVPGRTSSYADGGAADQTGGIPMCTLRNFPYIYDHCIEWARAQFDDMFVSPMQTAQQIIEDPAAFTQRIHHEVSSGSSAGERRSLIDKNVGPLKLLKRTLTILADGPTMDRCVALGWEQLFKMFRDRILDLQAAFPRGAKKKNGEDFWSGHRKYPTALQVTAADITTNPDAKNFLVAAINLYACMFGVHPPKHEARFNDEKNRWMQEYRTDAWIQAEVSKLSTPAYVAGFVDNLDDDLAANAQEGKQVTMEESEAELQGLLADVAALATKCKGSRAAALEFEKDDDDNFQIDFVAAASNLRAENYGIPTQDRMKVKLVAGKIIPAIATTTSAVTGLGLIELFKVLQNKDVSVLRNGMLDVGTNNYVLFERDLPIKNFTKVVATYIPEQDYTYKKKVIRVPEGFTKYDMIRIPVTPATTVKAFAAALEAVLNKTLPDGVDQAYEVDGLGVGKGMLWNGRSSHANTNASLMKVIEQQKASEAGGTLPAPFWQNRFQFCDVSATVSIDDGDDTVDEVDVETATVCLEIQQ
# protocolText: Leishmania donovani Ubiquitin Activating Enzyme (LdE1)
# Assay type: functional
# Set-up: scale not given: direction of the effect not stated beside the values
# runConditions: 30 µM
Results with a measured potency or affinity are listed apart.
The response must be a number in % with no trailing unit.

CN(Cc1cccc(Cl)c1)S(=O)(=O)N1CCOCC1; 10.5
COc1ccc(-c2csc(N)c2C#N)cc1OC; 6.67

Read the next record carefully.
# query: Percent Effect of entry O=C([C@H]1COC[C@H]2CN(Cc3ccco3)C[C@H]21)N1CCCO1 18.7
